Source of measurements: ChEMBL document CHEMBL1138764

tested on: L1210; test: Inhibition of [3H]thymidine uptake in L1210 cells; assay type: functional, cell-based; settings: Mus musculus
pIC50: −log10 of the molar value.
readout label: pIC50

COc1ccc(CNc2nc(OCCCO)nc3c(NCc4ccc(OC)cc4)nc(OCCCO)nc23)cc1 ... 6.34

(I) COc1ccc(CN(C)c2nc(N(CCO)CCO)nc3c(N(C)Cc4ccc(OC)cc4)nc(N(CCO)CCO)nc23)cc1
(II) COc1ccc(CNc2nc(N(CCO)CCO)nc3c(NCc4ccc(OC)c(OC)c4)nc(N(CCO)CCO)nc23)cc1OC
Request: Would you let me know which has the greater pIC50 value, I or II ? Please identify the chosen entry by its label.
Response: II
